Taken from patent US11827701B2.

Biological target: T1, human IL-6 (Homo sapiens, UniProt P05231)
T1 construct: host or cells: IL-6 added from outside to murine 7TD1 hybridoma cells
T1 sequence (P05231 30-212): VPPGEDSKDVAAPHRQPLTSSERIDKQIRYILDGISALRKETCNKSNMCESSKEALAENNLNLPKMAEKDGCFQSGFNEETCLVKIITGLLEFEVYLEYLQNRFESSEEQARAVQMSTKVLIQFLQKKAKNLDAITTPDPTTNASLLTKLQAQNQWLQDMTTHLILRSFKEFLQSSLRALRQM
Experiment: IL-6 neutralizing bioassay, B9 cell proliferation ([3H]thymidine)
Assay type: cell-based
Conditions: B9 cells; relative to 68F2 average IC50
Assay Metric: Rel. Potency
Lab note: jot the number down without any unit.

Look at this molecule and give its reported Rel. Potency. 61H7 (12.8) (antibody, V domains shown) VH: EVQLVESGGGLVQPGGSLRLSCAASGFTFSSYRMYWVRQPPGKGLEWVSAISAGGGSTYYGDSVKGRFTISRDNAKNTVYLQMNSLKPEDTAVYYCANRAGWGMGDYWGQGTQVTVSS VL: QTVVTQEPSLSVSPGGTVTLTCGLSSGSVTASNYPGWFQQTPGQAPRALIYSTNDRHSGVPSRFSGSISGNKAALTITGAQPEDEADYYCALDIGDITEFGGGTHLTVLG 0.4

Which Rel. Potency value belongs to 68F2 (A8.10) (antibody, V domains shown) VH: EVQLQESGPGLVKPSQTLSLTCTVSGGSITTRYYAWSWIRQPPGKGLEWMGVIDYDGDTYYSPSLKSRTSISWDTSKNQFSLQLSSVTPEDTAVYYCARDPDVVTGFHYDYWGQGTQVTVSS VL: QSALTQPPLVSGTPGQTVTISCAGANNDIGTYAYVSWYQQLPGTAPKLLIYKVTTRASGIPSRFSGSKSGNTASLTISGLQSEDEADYYCASYRNFNNAVFGRGTHLTVLG ? 1.3

# input molecule: 68F2 (12.9) (antibody, V domains shown) VH: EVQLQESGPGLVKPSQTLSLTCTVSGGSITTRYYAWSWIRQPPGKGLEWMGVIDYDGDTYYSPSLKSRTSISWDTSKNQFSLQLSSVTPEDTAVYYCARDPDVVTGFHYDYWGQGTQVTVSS VL: QSALTQPPLVSGTPGQTVTISCAGANNDIGTYAYVSWYQQLPGTAPKLLIYKVTTRASGIPSRFSGSKSGNTASLTISGLQSEDEADYYCASYRNFNNAVFGRGTHLTVLG ; wanted: its Rel. Potency 0.8

Fill blank: measured Rel. Potency of the molecule 61H7 (A8.11) (antibody, V domains shown) VH: EVQLVESGGGLVQPGGSLRLSCAASGFTFSSYRMYWVRQPPGKGLEWVSAISAGGGSTYYGDSVKGRFTISRDNAKNTVYLQMNSLKPEDTAVYYCANRAGWGMGDYWGQGTQVTVSS VL: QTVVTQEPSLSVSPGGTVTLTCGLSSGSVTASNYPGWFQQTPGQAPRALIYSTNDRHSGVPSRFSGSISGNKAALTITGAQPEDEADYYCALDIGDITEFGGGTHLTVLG is ____. 0.5
